Assayed System: HLA-A*11:01
Method Summary: IEDB peptide-MHC binding, purified MHC/direct/fluorescence; filed as Kd, often an IC50 or EC50 that approximates it; bounds were set here for any values at or beyond the usual limits of such assays
Details: source organism: SARS-CoV1
Quantity Name: Kd

INPUT: Tell me the measured Kd of HTLESPVEF , please.
OUTPUT: ≥ 53.9 µM

###

Assayed System: HLA-B*46:01
Method Summary: IEDB peptide-MHC binding, purified MHC/direct/fluorescence; filed as Kd, often an IC50 or EC50 that approximates it; bounds were set here for any values at or beyond the usual limits of such assays
Details: source organism: Campylobacter jejuni
Quantity Name: Kd

INPUT: Request - read-out Kd | tested on HLA-B*46:01 | sequence YWDQVTFFY
OUTPUT: ≥ 20 µM

Reference for the values: the Immune Epitope Database (IEDB)
